MEASUREMENT TARGET: T1, interleukin 18 binding protein (IL-18BP) (UniProt O95998 31-194)
T1 sequence (looked up): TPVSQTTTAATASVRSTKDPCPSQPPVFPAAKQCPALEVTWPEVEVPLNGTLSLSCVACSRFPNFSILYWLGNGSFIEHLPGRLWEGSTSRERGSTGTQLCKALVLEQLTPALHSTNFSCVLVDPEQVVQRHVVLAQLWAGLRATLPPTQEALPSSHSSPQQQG
MEASUREMENT NOTES: cell-based or functional assay
# EC50 (pM) + 300 nM BP, HEK-blue re-screening listing for each entry below
METRIC NAME: EC50 (pM) + 300 nM BP, HEK-blue re-screening

>>> numeric_readout("IL-18 variant G3P, E6K, D54Y, S55P, T63S, N91S, R104Q, Q154R (ligand) YFPKLKSKLSVIRNLNDQVLFIDQGNRPLFEDMTDSDMRDNAPRTIFIISMYKYPQPRGMAVSISVKSEKISTLSSENKIISFKEMNPPDSIKDTKSDIIFFQQSVPGHDNKMQFESSSYEGYFLASEKERDLFKLILKKEDELGDRSIMFTVRNED")
2.58
>>> numeric_readout("IL-18 variant G3P, E6H, N91L (ligand) YFPKLHSKLSVIRNLNDQVLFIDQGNRPLFEDMTDSDMRDNAPRTIFIISMYKDSQPRGMAVTISVKSEKISTLSSENKIISFKEMNPPDLIKDTKSDIIFFQRSVPGHDNKMQFESSSYEGYFLASEKERDLFKLILKKEDELGDRSIMFTVQNED")
5.34
